# METHOD SUMMARY: melting temperature; fluorescence melt of hairpins on a sequencing array, two-state fit, raised by 9.35 °C to match UV melts
# MEASUREMENT CONDITIONS: sodium 0.088 M
Listing: Tm of selected sequences
Write the value in °C as a bare number.

# example entries with known answers
GTATAGGGAAACCTGTAC (((.(((....))).))) : 39.2
GCGACGCGAAAGCGCAGC ((..(((....)))..)) : 58.9
GGATTGGGAAACTGATCC ((((..(....)..)))) : 34.4
GGTGAGAAATCACC (((((....))))) : 51
GTGCACGAAAGTGTTCAC ((((((....)))..))) : 37.4
GTAACAGGAAACTGTTGC (.(((((....))))).) : 45.3

I am curious: what Tm value has been reported for GTGAATCGAAAGATACAC (((.(((....))).))) ? 46.9

Please do the same for GTCGTCGAAAGACTGAC ((((((....))).))) as well. 47.5

Continue with GACGGAGAAATCCGTC ((((((....)))))) 59.1

Thanks! And GATCCTAAGAAGGATC ((((((....)))))) ? 48

Next sequence up: GCAACCGAAAGGTCATGC ((((((....)))..))) 32.3

What do you get for GGTGTCGAAAGACGGACC ((((((....)))..))) ? 40.3

Cool, now GATCTCCATGGAGATC ((((((....)))))) 57.4

Try this sequence too: GATCATGTGGATGATC ((((((....)))))) 47.3

And then GATCGTTATAACGATC ((((((....)))))) , what is it? 56.7

One more sequence: GTTTTTCCGAAAGGAAAC (((..(((....)))))) 35.1

How about this sequence: GAGTGGGGAAACCCACTC (((((((....))))))) 67.7

Try this sequence next: GTCCTCCGAAAGGATGAC (((.(((....))).))) 48.6

Let us now turn to GACGTTGGAAACAGCGTC ((((.((....)).)))) 52.1

Now consider GTGCGGGGAAACCCGTGC (..((((....))))..) . 53.8

Same again, this time with GACGGCACGAAAGTGGTC (((..(((....)))))) 34.5

###

# METHOD SUMMARY: melting temperature; fluorescence melt of hairpins on a sequencing array, two-state fit, raised by 9.35 °C to match UV melts
# MEASUREMENT CONDITIONS: sodium 0.088 M
Could you mark each record label 1 if its Tm falls strictly under 40 °C, and label 0 if it equals or exceeds it?

Would you kindly verify if Tm of GCCGGGCGAAAGCCATGC ((..(((....)))..)) is strictly less than 40 °C? label 0

Further, for GTGATCGAAAGATACCAC ((((((....)))..))) ? label 1

Could you do the same for GTCAGGGAAACCTGAC ((((((....)))))) , please? label 0

What do you get for GCTTTGGCGAAAGCCAGC (((..(((....)))))) ? label 1

Same thing, different sequence: GCTTGTGGAAACACAAGC (((((((....))))))) label 0

Try the sequence GCTGTGGGAAACCGTAGC (((..((....))..))) label 1

Moving on to GGAGGCGGAAACGCTTCC (((.(((....))).))) label 0

// query: GGTGGTGGAAACGTCACC ((((..(....)..)))) label 0

What about GCTCCGGGAAACCGAAGC (((.(((....))).))) ? label 0

Same lookup for GTGTGCGAAAGCAGCCAC ((((((....)))..))) , please. label 1

Same lookup for GAGTCCCGAAAGGGCCTC (((.(((....))).))) , please. label 0

###

# METHOD SUMMARY: folding enthalpy; higher = less favourable; fluorescence melt of hairpins on a sequencing array, two-state fit
# MEASUREMENT CONDITIONS: sodium 0.088 M
READOUT: folding enthalpy (kcal/mol)
Give just the numeric value; kcal/mol need not be written.

Example results:
GAGCCCGAAAGGGTACTC ((((((....)))..))) : -13.1
GTGGTCGAAAGACGTCAC ((((((....)))..))) : -13.5
GCGAATCGAAAGATCGC (((.(((....)))))) : -31.2
GCAATTGAAAAATTGC ((((((....)))))) : -32
GATCGTGAGAACGATC ((((((....)))))) : -31.5

Record request: folding enthalpy value, item GGCCTATCGAAAGATGCC (((..(((....)))))) -22.8

And for GGTTCCGAAAGGAGAACC ((((((....)))..))) ? -24.5

Next entry: GGTCGGGGAAACCCGGTC (..((((....))))..) -14.8

Try this sequence next: GGGATCGGAAACAATCCC (((((.(....).))))) -30.9

Would you mind doing GATCATCATCATGATC ((((((....)))))) as well? -34.8

What do we get for GCCAGTTCGAAAGAAGGC (((..(((....)))))) ? -20.2

What would you report for CGCTCGGAAACGATTGCG ((((((....)))..))) ? -25.4

Try this sequence too: GCGGTTGGAAACAGCCGC ((((.((....)).)))) -40.1

Please give the result for GAGTGCGAAAGCAGTCTC ((((((....)))..))) too. -23.7

Check GCGGAAACCCGC ((((....)))) too. -20.9

// next record GACAAGGGAAACCTTGCC (.(((((....))))).) -14.8

Same for GCTATGCGAAAGCAGAGC (((.(((....))).))) -49

Try this sequence too: GTATCTGGAAACGGATAC (((((.(....).))))) -38

Try GGCTACGAAAGTAAAGCC ((((((....)))..))) next. -32.5

Queued: GATCCGCATCGGATC ((((((...)))))) -38.3

Next record, please: TCAGGGAAACCTGA (((((....))))) -22.8

Would you kindly repeat that for GTTGCCGAAAGGCGTAAC ((((((....)))..))) ? -9.66

Check GGAGCAGGAAACCGCTCC (((((.(....).))))) too. -34.1

###

# METHOD SUMMARY: melting temperature; fluorescence melt of hairpins on a sequencing array, two-state fit, raised by 9.35 °C to match UV melts
# MEASUREMENT CONDITIONS: sodium 0.088 M
// NB: equality with 50 °C counts as 0 (no); only Tm strictly below is 1 (yes)

Tm strictly < 50 °C for this sequence? GATCCTGCTTAGGATC ((((((....)))))) 0 (no)

One more sequence: GATCGCTAGCGCGATC ((((((....)))))) 0 (no)

How about this sequence: GGTCGCGGAAACGCGGTC (..((((....))))..) 1 (yes)

Next sequence up: GCCAATGGAAACATCGGC (((.(((....))).))) 1 (yes)

// same read-out, input: GTTGGCGAAAGCCCGAAC ((((((....)))..))) 1 (yes)

###

# METHOD SUMMARY: melting temperature; fluorescence melt of hairpins on a sequencing array, two-state fit, raised by 9.35 °C to match UV melts
# MEASUREMENT CONDITIONS: sodium 0.088 M
Classification field: met = Tm at or over 40 °C; not met = Tm under 40 °C.

GACAGGGGAAACCCCATC ((..(((....)))..)) : not met
GCTCAGGGAAACCTGAGC (((((((....))))))) : met
GCCGGAGGAAACCCCGAC (.(((.(....).))).) : not met
GTCAGCGGAAACGTTGGC (.((.((....)).)).) : met
GAGATCCGAAAGGAACTC (((.(((....))).))) : met

For this sequence, is measured Tm 40 °C or higher? GATCTTCCTTAAGATC ((((((....)))))) met

What about this sequence? GCCACCGCGAAAGCGGGC (((..(((....)))))) met

What about this sequence? CGTGGTCGGAAACGAACG (((..(((....)))))) not met

What do you have for GGTTACGAAAGTATGACC ((((((....)))..))) ? not met

What do we get for GCGAAAACTCGC ((((....)))) ? met

Another sequence to look at: GCTTAGGGAAACTTAAGC (((((.(....).))))) not met

What would you report for GATCCAAAGATGGATC ((((((....)))))) ? met

GCTCCAACGAAAGTTAGC (((..(((....)))))) ? not met

// repeat for GGACGTGGAAACACGCCC ((.((((....)))).)) and report met

All values here come from the array DNA melting data of Ke et al. (doi:10.1101/2024.01.08.574731).
